These entries and their values trace back to patent US11504441B2.

- EXPERIMENTAL_DETAILS: in vivo
- Set-up: species or system mice
- STATED_CONDITIONS: male, NODSCID 1L2RγKO, mouse, iv, total radioactivity, Thyroid uptake
EXPERIMENTAL_READOUT: tissue uptake at 24 h (%ID/g)

{"COMPOUND": "COc1ccc(CCCC(=O)NCC(=O)N[C@@H](CCCCNC(=O)CN2CCN(CC(=O)O)CCN(CC(=O)O)CCN(CC(=O)O)CC2)C(=O)NC[C@H]2CC[C@H](C(=O)N[C@@H](Cc3c4ccccc4cc4ccccc34)C(=O)NCCCC[C@H](NC(=O)N[C@@H](CSCC(=O)O)C(=O)O)C(=O)O)CC2)cc1 [177Lu-HTK04048, metal not drawn]", "NUMERIC_READOUT": 0.55}
{"COMPOUND": "O=C(O)CCC[C@H](NC(=O)N[C@@H](CCCCNC(=O)[C@H](Cc1c2ccccc2cc2ccccc12)NC(=O)[C@H]1CC[C@H](CNC(=O)[C@H](CCCCNC(=O)CN2CCN(CC(=O)O)CCN(CC(=O)O)CCN(CC(=O)O)CC2)NC(=O)CNC(=O)CCCc2ccc(Cl)cc2)CC1)C(=O)O)C(=O)O [177Lu-HTK03153, metal not drawn]", "NUMERIC_READOUT": 1.95}
{"COMPOUND": "O=C(O)CCC[C@H](NC(=O)N[C@@H](CCCCNC(=O)[C@H](Cc1c2ccccc2cc2ccccc12)NC(=O)[C@H]1CC[C@H](CNC(=O)CN2CCN(CC(=O)O)CCN(CC(=O)O)CCN(CC(=O)O)CC2)CC1)C(=O)O)C(=O)O [177Lu-HTK03149, metal not drawn]", "NUMERIC_READOUT": 0.06}
{"COMPOUND": "COc1ccc(CCCC(=O)NCC(=O)N[C@@H](CCCCNC(=O)CN2CCN(CC(=O)O)CCN(CC(=O)O)CCN(CC(=O)O)CC2)C(=O)NC[C@H]2CC[C@H](C(=O)N[C@@H](Cc3c4ccccc4cc4ccccc34)C(=O)NCCCC[C@H](NC(=O)N[C@@H](CCCC(=O)O)C(=O)O)C(=O)O)CC2)cc1 [177Lu-HTK03170, metal not drawn]", "NUMERIC_READOUT": 0.37}
{"COMPOUND": "COc1ccc(CCCC(=O)NCC(=O)N[C@@H](CCCCNC(=O)CN2CCN(CC(=O)O)CCN(CC(=O)O)CCN(CC(=O)O)CC2)C(=O)NC[C@H]2CC[C@H](C(=O)N[C@@H](Cc3c4ccccc4cc4ccccc34)C(=O)NCCCC[C@H](NC(=O)N[C@@H](COCC(=O)O)C(=O)O)C(=O)O)CC2)cc1 [177Lu-HTK04028, metal not drawn]", "NUMERIC_READOUT": 0.52}
